Every entry's value here was drawn from ChEMBL document CHEMBL1134521.

target: UniProt P41149; assay: Functional activity at the mouse melanocortin 5 receptor
Reported EC50 values for the following compounds.
// units = nM; emit number, no label

Enquiry: // lookup EC50 for CC(=O)N[C@@H](Cc1c[nH]cn1)C(=O)N[C@@H](Cc1ccccc1)C(=O)N[C@@H](CCCN=C(N)N)C(=O)N[C@@H](Cc1c[nH]c2ccccc12)C(N)=O
Return: 103

Enquiry: // lookup EC50 for CCCC[C@H](NC(=O)[C@H](CO)NC(=O)[C@H](Cc1ccc(O)cc1)NC(=O)[C@H](CO)NC(C)=O)C(=O)N[C@@H](CCC(=O)O)C(=O)N[C@@H](Cc1c[nH]cn1)C(=O)N[C@H](Cc1ccccc1)C(=O)N[C@@H](CCCN=C(N)N)C(=O)N[C@@H](Cc1c[nH]c2ccccc12)C(=O)NCC(=O)N[C@@H](CCCCN)C(N)=O
Return: 0.46

Enquiry: // lookup EC50 for CC(=O)N[C@@H](Cc1cnc[nH]1)C(=O)N[C@H](Cc1ccccc1)C(=O)N[C@@H](CCCN=C(N)N)C(=O)N[C@@H](Cc1c[nH]c2ccccc12)C(N)=O
Return: 3.46

Enquiry: // lookup EC50 for CC(=O)N[C@@H](CCC(=O)O)C(=O)N[C@@H](Cc1c[nH]cn1)C(=O)N[C@H](Cc1ccccc1)C(=O)N[C@@H](CCCN=C(N)N)C(=O)N[C@@H](Cc1c[nH]c2ccccc12)C(N)=O
Return: 0.42

###

Reported pEC50 values for the following molecules.
biological target: Melanocortin receptor 5 (Mus musculus); assay: Functional activity at the mouse melanocortin 5 receptor
Sequence (P41149 whole entry): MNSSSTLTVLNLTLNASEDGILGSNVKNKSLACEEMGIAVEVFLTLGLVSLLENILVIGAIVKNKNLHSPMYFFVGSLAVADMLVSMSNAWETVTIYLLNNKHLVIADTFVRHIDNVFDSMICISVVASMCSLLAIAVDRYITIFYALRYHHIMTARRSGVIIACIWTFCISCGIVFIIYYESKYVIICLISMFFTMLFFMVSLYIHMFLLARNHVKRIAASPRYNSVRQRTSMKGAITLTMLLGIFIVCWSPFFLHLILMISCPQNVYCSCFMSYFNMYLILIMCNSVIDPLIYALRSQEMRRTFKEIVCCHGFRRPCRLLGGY
Where a SMILES comes first, the peptide text is derived from it. [ ]: non-standard residue; d: D form.
Keep it numeric: pEC50 is minus log10 of the concentration in mol/L.

A selection of reference data follows.
MOLECULE	pEC50
CC(=O)N[C@@H](Cc1c[nH]cn1)C(=O)N[C@@H](Cc1ccccc1)C(=O)N[C@@H](CCCN=C(N)N)C(=O)N[C@H](Cc1c[nH]c2ccccc12)C(N)=O	6.50
CCCC[C@H](NC(=O)[C@H](CO)NC(=O)[C@H](Cc1ccc(O)cc1)NC(=O)[C@H](CO)NC(C)=O)C(=O)N[C@@H](CCC(=O)O)C(=O)N[C@@H](Cc1cnc[nH]1)C(=O)N[C@H](Cc1ccccc1)C(=O)N[C@@H](CCCNC(=N)N)C(=O)N[C@@H](Cc1c[nH]c2ccccc12)C(N)=O	9.28
CCCC[C@H](NC(C)=O)C(=O)N[C@@H](CCC(=O)O)C(=O)N[C@@H](Cc1cnc[nH]1)C(=O)N[C@H](Cc1ccccc1)C(=O)N[C@@H](CCCNC(=N)N)C(=O)N[C@@H](Cc1c[nH]c2ccccc12)C(=O)NCC(=O)N[C@@H](CCCCN)C(=O)N1CCC[C@H]1C(=O)N[C@H](C(N)=O)C(C)C	9.34

Enquiry: // lookup pEC50 for CC(=O)N[C@H](Cc1ccccc1)C(=O)N[C@@H](CCCN=C(N)N)C(=O)N[C@@H](Cc1c[nH]c2ccccc12)C(N)=O (Ac-[dF]-Arg-Trp-NH2)
Return: 5.78

###

target: Melanocyte-stimulating hormone receptor (Mus musculus, UniProt Q01727); assay: Functional activity at the mouse melanocortin 1 receptor
Sequence (Q01727 whole entry): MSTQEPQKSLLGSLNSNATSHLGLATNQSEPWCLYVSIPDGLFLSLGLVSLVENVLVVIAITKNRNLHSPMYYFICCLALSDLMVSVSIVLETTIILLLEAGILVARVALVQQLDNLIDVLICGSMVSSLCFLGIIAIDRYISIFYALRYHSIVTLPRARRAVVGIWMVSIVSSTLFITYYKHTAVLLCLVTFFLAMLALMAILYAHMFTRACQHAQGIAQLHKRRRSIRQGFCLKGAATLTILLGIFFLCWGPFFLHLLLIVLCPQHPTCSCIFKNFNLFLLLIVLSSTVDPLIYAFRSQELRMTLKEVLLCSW
Where a SMILES comes first, the peptide text is derived from it. [ ]: non-standard residue; d: D form.
MEASURED QUANTITY: EC50 (nM)
// units = nM; emit number, no label

MOLECULE	ASSAY SYSTEM	EC50, nM
CCCC[C@H](NC(C)=O)C(=O)N[C@@H](CCC(=O)O)C(=O)N[C@@H](Cc1cnc[nH]1)C(=O)N[C@H](Cc1ccccc1)C(=O)N[C@@H](CCCNC(=N)N)C(=O)N[C@@H](Cc1c[nH]c2ccccc12)C(=O)NCC(=O)N[C@@H](CCCCN)C(=O)N1CCC[C@H]1C(=O)N[C@H](C(N)=O)C(C)C	Melanocyte-stimulating hormone receptor (Mus musculus, UniProt Q01727)	0.021
CC(=O)N[C@H](Cc1ccccc1)C(=O)N[C@@H](CCCN=C(N)N)C(=O)N[C@@H](Cc1c[nH]c2ccccc12)C(N)=O (Ac-[dF]-Arg-Trp-NH2)	Melanocyte-stimulating hormone receptor (Mus musculus, UniProt Q01727)	4540
CC(=O)N[C@@H](Cc1ccccc1)C(=O)N[C@@H](CCCNC(=N)N)C(=O)N[C@@H](Cc1c[nH]c2ccccc12)C(N)=O (Ac-Phe-Arg-Trp-NH2)	Melanocyte-stimulating hormone receptor (Mus musculus, UniProt Q01727)	5870

Enquiry: // lookup EC50 for CCCC[C@H](NC(C)=O)C(=O)N[C@@H](CCC(=O)O)C(=O)N[C@@H](Cc1c[nH]cn1)C(=O)N[C@H](Cc1ccccc1)C(=O)N[C@@H](CCCN=C(N)N)C(=O)N[C@@H](Cc1c[nH]c2ccccc12)C(N)=O
Return: 0.034

Enquiry: // lookup EC50 for CC(=O)N[C@@H](Cc1c[nH]cn1)C(=O)N[C@H](Cc1ccccc1)C(=O)N[C@@H](CCCN=C(N)N)C(=O)N[C@@H](Cc1c[nH]c2ccccc12)C(=O)NCC(=O)N[C@@H](CCCCN)C(=O)N1CCC[C@H]1C(=O)N[C@H](C(N)=O)C(C)C
Return: 0.49

###

target: UniProt:Q01727; test: Functional activity at the mouse melanocortin 1 receptor
MEASURED QUANTITY: EC50
Remember to follow the number with its unit.

SMILES STRING	EC50
CCCC[C@H](NC(=O)[C@H](CO)NC(=O)[C@H](Cc1ccc(O)cc1)NC(=O)[C@H](CO)NC(C)=O)C(=O)N[C@@H](CCC(=O)O)C(=O)N[C@@H](Cc1cnc[nH]1)C(=O)N[C@H](Cc1ccccc1)C(=O)N[C@@H](CCCNC(=N)N)C(=O)N[C@@H](Cc1c[nH]c2ccccc12)C(N)=O	36 pM
CCCC[C@H](NC(=O)[C@H](CO)NC(=O)[C@H](Cc1ccc(O)cc1)NC(=O)[C@H](CO)NC(C)=O)C(=O)N[C@@H](CCC(=O)O)C(=O)N[C@@H](Cc1c[nH]cn1)C(=O)N[C@H](Cc1ccccc1)C(=O)N[C@@H](CCCN=C(N)N)C(=O)N[C@@H](Cc1c[nH]c2ccccc12)C(=O)NCC(=O)N[C@@H](CCCCN)C(N)=O	18 pM
CC(=O)N[C@@H](CCC(=O)O)C(=O)N[C@@H](Cc1c[nH]cn1)C(=O)N[C@H](Cc1ccccc1)C(=O)N[C@@H](CCCN=C(N)N)C(=O)N[C@@H](Cc1c[nH]c2ccccc12)C(N)=O	8940 pM

Enquiry: // lookup EC50 for CCCC[C@H](NC(C)=O)C(=O)N[C@@H](CCC(=O)O)C(=O)N[C@@H](Cc1c[nH]cn1)C(=O)N[C@H](Cc1ccccc1)C(=O)N[C@@H](CCCN=C(N)N)C(=O)N[C@@H](Cc1c[nH]c2ccccc12)C(=O)NCC(N)=O
Return: 45 pM
